The measured values listed here are drawn from paper PMC11284088.

- assay_target: WalK (Bacillus subtilis)
- Construct: His6 (N); made in house; host or cells: E. coli BL21(DE3)
- Sequence (Q45614 207-611): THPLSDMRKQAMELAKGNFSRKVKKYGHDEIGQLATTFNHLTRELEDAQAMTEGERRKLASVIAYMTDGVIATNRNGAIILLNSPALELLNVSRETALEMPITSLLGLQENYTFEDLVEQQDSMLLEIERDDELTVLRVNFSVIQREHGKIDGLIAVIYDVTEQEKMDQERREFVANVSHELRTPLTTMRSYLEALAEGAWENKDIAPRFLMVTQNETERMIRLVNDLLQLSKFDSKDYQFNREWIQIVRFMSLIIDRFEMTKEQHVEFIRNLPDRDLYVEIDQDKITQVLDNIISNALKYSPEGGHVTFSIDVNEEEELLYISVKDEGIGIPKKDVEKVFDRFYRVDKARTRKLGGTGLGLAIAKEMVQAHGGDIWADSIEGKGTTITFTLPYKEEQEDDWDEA
- test_details: Inhibition of WalK autophosphorylation
- Assay type: biochemical
- test_settings: against WalK from B. subtilis, autophosphorylation; N.I. = no inhibition; read-out: IC50
A collection of compounds and their measured log10(IC50)
Scale type: logarithmic (base 10). Underlying IC50 unit: µM.

[Q] Look up log10(IC50) for this compound: "O=C1C(Cl)=C(Nc2cccc(O)c2)C(=O)c2c(O)ccc(O)c21"
[A] 1.50

[Q] Please report the recorded log10(IC50) for "Cc1noc2c1C(=O)c1c(O)ccc(O)c1C2=O" .
[A] 2.27

[Q] What does the data say about its log10(IC50)? Entry: "CC(C)(C)OC(=O)Nc1cccc(NC2=C(Cl)C(=O)c3c(O)ccc(O)c3C2=O)c1"
[A] 1.11

[Q] Looking for the measured log10(IC50) of "O=C1C(Cl)=C(N2CCNCC2)C(=O)c2c(O)ccc(O)c21" , can you help?
[A] 1.51

[Q] Any idea what its log10(IC50) is? The compound is "O=C1C(N2CCNCC2)=CC(=O)c2c(O)cccc21"
[A] 1.68
